Measured IC50 of individual entries
molecular target: α4β7 integrin (Homo sapiens (Human), UniProt P13612+P26010); experiment: Integrin Adhesion Assay: Protocol 4 (MAdCAM-coated plate, RPMI-8866 cells with stable LOF mutation of the ITGB1 gene); assay type: cell-based; conditions: Protocol 4; RPMI-8866 cells with LOF mutation of ITGB1, MAdCAM; read-out: Mean IC50 α4β7 KO
Sequence (P13612 34-1032): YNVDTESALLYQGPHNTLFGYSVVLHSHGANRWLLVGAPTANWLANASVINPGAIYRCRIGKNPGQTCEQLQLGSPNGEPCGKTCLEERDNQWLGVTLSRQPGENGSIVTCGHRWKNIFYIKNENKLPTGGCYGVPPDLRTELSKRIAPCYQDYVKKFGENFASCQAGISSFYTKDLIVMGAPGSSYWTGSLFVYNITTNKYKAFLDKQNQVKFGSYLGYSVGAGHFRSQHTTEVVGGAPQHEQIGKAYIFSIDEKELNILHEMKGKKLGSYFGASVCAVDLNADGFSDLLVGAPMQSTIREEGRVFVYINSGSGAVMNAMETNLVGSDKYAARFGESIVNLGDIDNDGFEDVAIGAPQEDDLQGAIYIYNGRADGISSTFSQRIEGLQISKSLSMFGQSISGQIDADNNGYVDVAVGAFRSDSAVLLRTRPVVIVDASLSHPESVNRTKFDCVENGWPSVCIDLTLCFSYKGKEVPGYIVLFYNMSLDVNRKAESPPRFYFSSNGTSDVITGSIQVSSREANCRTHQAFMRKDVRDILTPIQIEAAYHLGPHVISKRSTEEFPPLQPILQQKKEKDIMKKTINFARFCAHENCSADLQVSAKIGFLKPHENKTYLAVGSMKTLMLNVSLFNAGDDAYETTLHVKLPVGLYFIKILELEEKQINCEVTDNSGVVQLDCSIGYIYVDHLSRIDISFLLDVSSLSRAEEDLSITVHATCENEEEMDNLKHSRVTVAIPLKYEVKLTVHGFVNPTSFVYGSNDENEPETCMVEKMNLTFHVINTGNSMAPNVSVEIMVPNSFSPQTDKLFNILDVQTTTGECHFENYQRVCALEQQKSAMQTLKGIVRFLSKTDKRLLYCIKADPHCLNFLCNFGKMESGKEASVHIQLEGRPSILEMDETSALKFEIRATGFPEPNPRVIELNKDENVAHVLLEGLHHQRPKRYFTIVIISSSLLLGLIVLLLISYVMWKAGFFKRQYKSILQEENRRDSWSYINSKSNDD
Sequence (P26010 20-798): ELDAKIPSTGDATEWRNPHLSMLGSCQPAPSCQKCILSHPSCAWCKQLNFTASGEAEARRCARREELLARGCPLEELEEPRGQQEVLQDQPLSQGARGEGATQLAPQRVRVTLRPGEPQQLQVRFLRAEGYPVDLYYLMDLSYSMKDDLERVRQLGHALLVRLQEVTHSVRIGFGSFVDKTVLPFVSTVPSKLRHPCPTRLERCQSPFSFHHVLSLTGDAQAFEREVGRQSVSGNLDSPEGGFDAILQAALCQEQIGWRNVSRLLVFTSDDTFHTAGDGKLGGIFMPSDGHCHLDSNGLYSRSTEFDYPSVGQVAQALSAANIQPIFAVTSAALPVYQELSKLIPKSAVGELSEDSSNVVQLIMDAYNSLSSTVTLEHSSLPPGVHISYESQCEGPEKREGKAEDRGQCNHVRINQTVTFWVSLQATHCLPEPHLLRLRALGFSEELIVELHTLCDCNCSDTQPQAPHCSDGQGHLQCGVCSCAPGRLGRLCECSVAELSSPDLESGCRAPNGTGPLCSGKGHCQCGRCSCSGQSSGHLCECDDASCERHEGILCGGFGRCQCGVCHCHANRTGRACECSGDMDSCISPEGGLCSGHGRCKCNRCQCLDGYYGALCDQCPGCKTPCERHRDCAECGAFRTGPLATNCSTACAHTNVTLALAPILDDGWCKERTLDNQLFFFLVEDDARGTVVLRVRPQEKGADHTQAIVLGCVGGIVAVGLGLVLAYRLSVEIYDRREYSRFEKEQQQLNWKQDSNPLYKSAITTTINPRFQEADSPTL
assay.metric: IC50

>>> assay_value("COC1CN(Cc2cnc(-c3cccc4c(C[C@H](NC(=O)C5(C(F)(F)F)CCN(CC(F)(F)F)CC5)C(=O)O)cccc34)c3ccccc23)C1 [Compound 866]")
"< 10 nM"
>>> assay_value("O=C(O)[C@H](Cc1cccc2c(-c3ncc(CN4CCCCC4)cc3C3CC3)cccc12)NC(=O)C1(C(F)(F)F)CCN(CC(F)F)CC1 [Compound 898]")
"< 10 nM"
>>> assay_value("COc1ccc(CN2CCC(C)(C)CC2)c(C(F)(F)F)c1-c1cccc2c(C[C@H](NC(=O)C3(C(F)(F)F)CCN(CC(F)(F)F)CC3)C(=O)O)cccc12 [Compound 819]")
"< 10 nM"
>>> assay_value("COc1cc(CCN2CCCCC2)ccc1-c1cccc2c(C[C@H](NC(=O)C3(C(F)(F)F)CCN(CC(F)(F)F)CC3)C(=O)O)cccc12 [Compound 963]")
"< 10 nM"
>>> assay_value("O=C(O)[C@H](Cc1cccc2c(-c3nccc4cccc(CN5CCCCC5)c34)cccc12)NC(=O)C1(C(F)(F)F)CCN(CC(F)(F)F)CC1 [Compound 864]")
"< 10 nM"
>>> assay_value("COc1cccc(CCN2CCC[C@H](F)C2)c1-c1cccc2c(C[C@H](NC(=O)C3(C(F)(F)F)CCN(CC(F)F)CC3)C(=O)O)cccc12 [Compound 969]")
"< 10 nM"
>>> assay_value("COc1ccc(CN2CCCC3(CCN(Cc4ccccc4)CC3)C2)c(OC)c1-c1cccc2c(C[C@H](NC(=O)C3(C(F)(F)F)CCN(CC(F)(F)F)CC3)C(=O)O)cccc12 [Compound 809]")
"< 10 nM"
>>> assay_value("O=C(O)[C@H](Cc1cccc2c(-c3nccc4ccc(CCCN5CCCCC5)cc34)cccc12)NC(=O)C1(C(F)(F)F)CCN(CC(F)F)CC1 [Compound 748]")
"< 10 nM"
>>> assay_value("COc1cccc(CCN2CCC(F)(F)CC2)c1-c1cccc2c(C[C@H](NC(=O)C3(C(F)(F)F)CCN(CC(F)(F)F)CC3)C(=O)O)cccc12 [Compound 974]")
"10 to 100 nM"
>>> assay_value("COc1c(CN(C)C)ccc(Cl)c1-c1cccc2c(C[C@H](NC(=O)c3c(C)cccc3F)C(=O)O)cccc12 [Compound 1011]")
"< 10 nM"
>>> assay_value("Cn1c(=O)c(-c2cccc3c(C[C@H](NC(=O)c4c(F)cccc4F)C(=O)O)cccc23)c(C(F)(F)F)c2cc(CO)ccc21 [Compound 1043]")
"10 to 100 nM"
>>> assay_value("O=C(O)[C@H](Cc1cccc2c(-c3ncc(CN4CCC(F)CC4)c4ccccc34)cccc12)NC(=O)C1(C(F)(F)F)CCN(CC(F)F)CC1 [Compound 905]")
"< 10 nM"
>>> assay_value("COc1ccc(CN2CCCC(F)(F)C2)c(OC)c1-c1cccc2c(C[C@H](NC(=O)C3(C(F)(F)F)CCN(CC(F)(F)F)CC3)C(=O)O)cccc12 [Compound 825]")
"10 to 100 nM"
>>> assay_value("COc1cc(CCN2CCCCC2)ccc1-c1cccc2c(C[C@H](NC(=O)c3c(C)cccc3F)C(=O)O)cccc12 [Compound 740]")
"< 10 nM"
>>> assay_value("CCOCc1cc(CN2CCCCC2)c(-c2cccc3c(C[C@H](NC(=O)c4c(C)cccc4F)C(=O)O)cccc23)c(OC)c1 [Compound 1000]")
"< 10 nM"
>>> assay_value("COc1cc(CN2CCC(C)(C)CC2)cnc1-c1cccc2c(C[C@H](NC(=O)c3c(C)cccc3F)C(=O)O)cccc12 [Compound 1005]")
"10 to 100 nM"
>>> assay_value("O=C(O)[C@H](Cc1cccc2c(-c3ncc(CN4CCCCC4)cc3C(F)(F)F)cccc12)NC(=O)C1(C(F)(F)F)CCN(CC(F)(F)F)CC1 [Compound 881]")
"10 to 100 nM"
>>> assay_value("COc1cccc(CCN2CCC(C)(C)CC2)c1-c1cccc2c(C[C@H](NC(=O)c3c(C)cccc3F)C(=O)O)cccc12 [Compound 1033]")
"< 10 nM"
>>> assay_value("COc1cc(CN2CCC[C@@H](F)C2)cc(C(F)(F)F)c1-c1cccc2c(C[C@H](NC(=O)C3(C(F)(F)F)CCN(CC(F)(F)F)CC3)C(=O)O)cccc12 [Compound 849]")
"10 to 100 nM"
>>> assay_value("O=C(O)[C@H](Cc1cccc2c(-c3ncc(CN4CC5(CC5)C4)c4ccccc34)cccc12)NC(=O)C1(C(F)(F)F)CCN(CC(F)F)CC1 [Compound 908]")
"< 10 nM"
>>> assay_value("COc1ccc(CN2CCOCC2)c(OC)c1-c1cccc2c(C[C@H](NC(=O)C3(C(F)(F)F)CCN(CC(F)(F)F)CC3)C(=O)O)cccc12 [Compound 785]")
"10 to 100 nM"
>>> assay_value("Cc1cccc(F)c1C(=O)N[C@@H](Cc1cccc2c(-c3c(C(F)(F)F)c4cc(CCCN(C)C)ccc4n(C)c3=O)cccc12)C(=O)O [Compound 1053]")
"< 10 nM"
>>> assay_value("COc1cccc(CCN2CCCC(F)C2)c1-c1cccc2c(C[C@H](NC(=O)C3(C(F)(F)F)CCN(CC(F)(F)F)CC3)C(=O)O)cccc12 (stereo partly drawn) [Compound 959]")
"< 10 nM"
>>> assay_value("COc1ccc2c(c1-c1cccc3c(C[C@H](NC(=O)c4c(C)cccc4F)C(=O)O)cccc13)CCN(CC(F)F)C2 [Compound 1003]")
"10 to 100 nM"
